molecular target: EED (Homo sapiens, UniProt O75530); assay: Temperature shift assay (non-BRD reader domains); format: binding; settings: 10µM compound
Sequence (O75530 whole entry, species assumed, the tested form may be a part): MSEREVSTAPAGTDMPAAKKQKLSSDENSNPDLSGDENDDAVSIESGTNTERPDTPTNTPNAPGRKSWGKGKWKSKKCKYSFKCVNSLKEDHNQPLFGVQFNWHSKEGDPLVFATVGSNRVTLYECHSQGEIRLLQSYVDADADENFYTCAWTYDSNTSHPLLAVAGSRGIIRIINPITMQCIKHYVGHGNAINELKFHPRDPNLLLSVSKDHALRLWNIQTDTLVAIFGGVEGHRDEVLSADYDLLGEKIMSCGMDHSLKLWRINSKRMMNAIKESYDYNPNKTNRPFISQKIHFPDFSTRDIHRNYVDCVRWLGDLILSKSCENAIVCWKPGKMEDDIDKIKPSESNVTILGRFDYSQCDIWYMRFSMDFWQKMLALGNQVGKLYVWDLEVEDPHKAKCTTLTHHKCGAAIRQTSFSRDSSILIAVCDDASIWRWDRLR
Each record here notes measured Tm (C) 10µM, temperature shift.
readout_type: Tm (C) 10µM, temperature shift

- smiles_code: "CN1C[C@H](Nc2cnn(C)c(=O)c2Br)C[C@H](c2ccccc2)C1"
  readout_type: "Tm (C) 10µM, temperature shift"
  result: "-0.7 Kelvin"
- smiles_code: "CO[C@H]1CNC[C@@H](OCC2CCC(F)(F)CC2)[C@@H]1Nc1ncc(-c2cncc(C)c2)c2cc(C)c(=O)[nH]c12"
  readout_type: "Tm (C) 10µM, temperature shift"
  result: "-0.4 Kelvin"
- smiles_code: "Cc1c(NC(=O)c2cc(C(N)=O)nc3cc(F)ccc23)c(C(F)(F)F)nn1Cc1ccc(C(C)(C)C)cc1"
  readout_type: "Tm (C) 10µM, temperature shift"
  result: "-0.5 Kelvin"

====

target: BAZ2A (Homo sapiens); assay: BROMOscan ligand-binding assay
Sequence (Q9UIF9 1793-1897 limits assumed): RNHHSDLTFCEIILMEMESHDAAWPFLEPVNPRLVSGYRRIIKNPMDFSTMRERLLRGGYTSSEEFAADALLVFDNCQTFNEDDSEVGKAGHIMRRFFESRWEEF

- compound: "CCCS(=O)(=O)c1nc(NC2CC2)cc(-c2ccc3c(ccn3C3CC(C)(C)NC(C)(C)C3)c2)n1 [NVS-CECR2-1]"
  Kd: "> 30 µM"
- compound: "O=C(O)c1ccccc1O [Salicylic Acid]"
  Kd: "> 14000 µM"
- compound: "O=C(C=CN1CC2CC1CN2c1ccccn1)c1ccccc1O (stereo not drawn) [PFI-3]"
  Kd: "> 100 µM"

====

Target: FXR1 (Homo sapiens)
Sequence (P51114 2-132 limits assumed, species assumed): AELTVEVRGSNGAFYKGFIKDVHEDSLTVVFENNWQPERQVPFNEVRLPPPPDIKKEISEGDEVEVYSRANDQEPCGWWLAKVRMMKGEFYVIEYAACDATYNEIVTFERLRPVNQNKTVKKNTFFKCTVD
Experiment: Temperature shift assay (non-BRD reader domains)
Type: binding
Conditions: 10µM compound
Method: Temperature shift assays have been described by Fedorov et al.[46]. Recombinant protein domains (bromodomain or kinases) at a concentration of 2 μM in 10 mM HEPES, pH 7.5, and 500 mM NaCl were mixed with 10 μM of chemical probes. Temperature-dependent protein unfolding profiles were measured using a Real-Time PCR Mx3005p machine (Stratagene). Wu et al., Supplementary figures and tables 14 Supplementary Table 3: Selectivity screening data (non-BRD reader domains): […] reader domains. […]
readout_type: Tm (C) 10µM, temperature shift (Kelvin)

- molecule: "CCC(=O)N1CCOc2c(cc(-c3ccc(OC)c(OC)c3)cc2OCC2CCCN(C)C2)C1 (stereo not drawn)"
  experimental_target: "FXR1 (Homo sapiens)"
  readout_type: "Tm (C) 10µM, temperature shift"
  quantitative_result: 0.9
- molecule: "Cc1c(NC(=O)c2cc(C(N)=O)nc3cc(F)ccc23)c(C(F)(F)F)nn1Cc1ccc(C#N)cc1"
  experimental_target: "FXR1 (Homo sapiens)"
  readout_type: "Tm (C) 10µM, temperature shift"
  quantitative_result: 0.8
- molecule: "CN1C[C@H](Nc2cnn(C)c(=O)c2Br)C[C@H](c2ccccc2)C1"
  experimental_target: "FXR1 (Homo sapiens)"
  readout_type: "Tm (C) 10µM, temperature shift"
  quantitative_result: 0.3
- molecule: "CO[C@H]1CNC[C@@H](OCC2CCC(F)(F)CC2)[C@@H]1Nc1ncc(-c2cncc(C)c2)c2cc(C)c(=O)[nH]c12"
  experimental_target: "FXR1 (Homo sapiens)"
  readout_type: "Tm (C) 10µM, temperature shift"
  quantitative_result: 0.4
- molecule: "Cc1nnc2c3ccccc3c(N[C@@H](C)[C@H](c3ccccc3)N(C)C)nn12"
  experimental_target: "FXR1 (Homo sapiens)"
  readout_type: "Tm (C) 10µM, temperature shift"
  quantitative_result: 0.3
- molecule: "Cc1c(NC(=O)c2cc(C(N)=O)nc3cc(F)ccc23)c(C(F)(F)F)nn1Cc1ccc(C(C)(C)C)cc1"
  experimental_target: "FXR1 (Homo sapiens)"
  readout_type: "Tm (C) 10µM, temperature shift"
  quantitative_result: -1.2

====

molecular target: SUV39H2 (Homo sapiens); construct: purchased DiscoverX BROMOscan (bromodomains); SGC in-house methyltransferase panel; assay: Methyl transferase scintillation proximity assay; format: biochemical; conditions: average of two measurements, read-out: MTases Inhibition (%)
Sequence (Q9H5I1 whole entry): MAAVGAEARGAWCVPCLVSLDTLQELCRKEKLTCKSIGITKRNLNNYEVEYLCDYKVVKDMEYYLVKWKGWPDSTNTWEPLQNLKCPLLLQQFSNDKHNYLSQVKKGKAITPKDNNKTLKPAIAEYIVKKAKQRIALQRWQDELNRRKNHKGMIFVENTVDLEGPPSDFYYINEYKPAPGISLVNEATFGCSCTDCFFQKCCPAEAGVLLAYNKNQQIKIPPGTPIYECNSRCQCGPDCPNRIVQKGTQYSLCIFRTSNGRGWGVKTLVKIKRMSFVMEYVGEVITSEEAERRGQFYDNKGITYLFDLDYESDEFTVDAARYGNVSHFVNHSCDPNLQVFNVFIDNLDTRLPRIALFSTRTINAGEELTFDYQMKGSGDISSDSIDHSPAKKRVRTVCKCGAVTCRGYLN

- smiles_code: "CO[C@H]1CNC[C@@H](OCC2CCC(F)(F)CC2)[C@@H]1Nc1ncc(-c2cncc(C)c2)c2cc(C)c(=O)[nH]c12"
  unit_string: "%"
  inhibition at 10 µM: 3
- smiles_code: "Cc1c(NC(=O)c2cc(C(N)=O)nc3cc(F)ccc23)c(C(F)(F)F)nn1Cc1ccc(C(C)(C)C)cc1"
  unit_string: "%"
  inhibition at 10 µM: 12
- smiles_code: "Cc1nnc2c3ccccc3c(N[C@@H](C)[C@H](c3ccccc3)N(C)C)nn12"
  unit_string: "%"
  inhibition at 10 µM: 5
- smiles_code: "CN1C[C@H](Nc2cnn(C)c(=O)c2Br)C[C@H](c2ccccc2)C1"
  unit_string: "%"
  inhibition at 10 µM: 5
- smiles_code: "CN(C)CCCOc1ccc(-c2cc(NCCCn3cccn3)nc(S(C)(=O)=O)n2)cc1"
  unit_string: "%"
  inhibition at 10 µM: 7
- smiles_code: "Cc1c(NC(=O)c2cc(C(N)=O)nc3cc(F)ccc23)c(C(F)(F)F)nn1Cc1ccc(C#N)cc1"
  unit_string: "%"
  inhibition at 10 µM: -2

====

Each entry below lists one item and its recorded activity at 1 µM value.
Target: UniProt O14929
Sequence (O14929 1-419): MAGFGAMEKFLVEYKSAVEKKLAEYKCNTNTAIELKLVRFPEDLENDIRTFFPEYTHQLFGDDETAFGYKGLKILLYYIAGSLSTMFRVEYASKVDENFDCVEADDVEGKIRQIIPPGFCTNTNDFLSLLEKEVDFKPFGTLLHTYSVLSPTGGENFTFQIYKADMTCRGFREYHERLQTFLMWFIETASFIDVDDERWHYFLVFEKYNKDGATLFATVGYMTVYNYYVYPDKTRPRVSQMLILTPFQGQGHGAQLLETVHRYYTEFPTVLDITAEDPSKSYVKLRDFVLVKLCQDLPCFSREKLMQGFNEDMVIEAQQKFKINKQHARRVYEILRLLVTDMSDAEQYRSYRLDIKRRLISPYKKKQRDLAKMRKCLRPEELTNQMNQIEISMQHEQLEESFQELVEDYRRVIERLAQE
Experiment: Histone acetyltransferase (HAT) activity assay;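 further: HAT selectivity screen of BRD probe compounds, enzyme activity in % measured with compound at 1 µM and 10 µM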
Assay type: biochemical
Conditions: 1µM; read-out: HATs Activity (%)

- molecule: "CCC(=O)N1CCOc2c(cc(-c3ccc(OC)c(OC)c3)cc2OCC2CCCN(C)C2)C1 (stereo not shown)"
  activity at 1 µM / %: 100
- molecule: "COc1ccc(CCc2nc3cc(-c4c(C)noc4C)ccc3n2C[C@H](C)N2CCOCC2)cc1Cl"
  activity at 1 µM / %: 96
- molecule: "CC(=O)c1cc(-c2cc(C(=O)NC3CC3)ccc2C)c2ncccn12"
  activity at 1 µM / %: 98
- molecule: "Cc1cc2c(cc1N1C(=O)c3cccc4c(CCCO)ccc(c34)C1=O)n(C)c(=O)n2C"
  activity at 1 µM / %: 100
- molecule: "CN(C)CCCOc1ccc(-c2cc(NCCCn3cccn3)nc(S(C)(=O)=O)n2)cc1"
  activity at 1 µM / %: 93
- molecule: "Cc1c(NC(=O)c2cc(C(N)=O)nc3cc(F)ccc23)c(C(F)(F)F)nn1Cc1ccc(C#N)cc1"
  activity at 1 µM / %: 97
- molecule: "COc1cc(-c2cn(C)c(=O)c3cnccc23)c(OC)cc1CN(C)C"
  activity at 1 µM / %: 99
- molecule: "CN1C[C@H](Nc2cnn(C)c(=O)c2Br)C[C@H](c2ccccc2)C1"
  activity at 1 µM / %: 102
- molecule: "Cc1c(NC(=O)c2cc(C(N)=O)nc3cc(F)ccc23)c(C(F)(F)F)nn1Cc1ccc(C(C)(C)C)cc1"
  activity at 1 µM / %: 99
- molecule: "CO[C@H]1CNC[C@@H](OCC2CCC(F)(F)CC2)[C@@H]1Nc1ncc(-c2cncc(C)c2)c2cc(C)c(=O)[nH]c12"
  activity at 1 µM / %: 100
